TARGET: human CD3 expressed on cells (Jurkat cells; human T-cells of PBMC) (human, UniProt P09693 23-182; P20963 22-164)
Sequence (chain, as listed by the source, chain 1 of 4): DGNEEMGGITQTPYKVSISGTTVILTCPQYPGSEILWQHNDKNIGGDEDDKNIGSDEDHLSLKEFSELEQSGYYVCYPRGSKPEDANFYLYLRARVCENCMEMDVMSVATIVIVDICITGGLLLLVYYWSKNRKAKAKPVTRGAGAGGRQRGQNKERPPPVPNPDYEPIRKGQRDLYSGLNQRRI
Sequence (chain, as listed by the source, chain 2 of 4): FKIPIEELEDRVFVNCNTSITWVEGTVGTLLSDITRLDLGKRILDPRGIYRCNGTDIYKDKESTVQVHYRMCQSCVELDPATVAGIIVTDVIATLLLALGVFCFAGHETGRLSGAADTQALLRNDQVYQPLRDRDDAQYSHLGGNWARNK
Sequence (P09693 23-182, chain 3 of 4): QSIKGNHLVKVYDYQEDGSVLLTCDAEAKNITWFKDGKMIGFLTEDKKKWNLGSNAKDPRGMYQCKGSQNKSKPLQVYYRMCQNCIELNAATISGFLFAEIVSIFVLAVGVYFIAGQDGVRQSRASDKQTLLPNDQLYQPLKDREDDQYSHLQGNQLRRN
Sequence (P20963 22-164, chain 4 of 4): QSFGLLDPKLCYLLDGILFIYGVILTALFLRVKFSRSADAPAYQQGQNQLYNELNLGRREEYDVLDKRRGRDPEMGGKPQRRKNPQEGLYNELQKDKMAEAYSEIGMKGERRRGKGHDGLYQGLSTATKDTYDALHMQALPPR
PROTOCOL_TEXT: cell-based or functional assay
EXPERIMENTAL_READOUT: EC50 [M] hPBMC Proliferation
Write your answer as a measured quantity: the number, then the unit.

Given the entry H1H5795B (antibody, human IgG1, V domains shown, H1H: human IgG1 Fc) VH: EVQLVESGAEVKKPGASVKVSCKTSGYSFIGYYIHWMRQAPGQGLEWMGWINPKSGVTNYAQRFQGRVTMTRDTSISTAYMELSRLKSDDTAVYFCARMGDGAVFDFWGQGTLVTVSS VL: DIQLTQSPSSLSASVGDRVTITCRASQRISSFLNWYQQKPGKVPKLLIYTASNLQNGVPSRFSGTGSGTDFTLTISSLQPEDFATYYCQQSYRTPLTFGGGTKVDIKR , report its measured EC50 [M] hPBMC Proliferation.
3.09e-12 M
